Entry source: paper PMC5540273

System: RSK2(Kin.Dom.2-C-terminal);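 note: KINOMEscan kinase panel screen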
Construct: gene RPS6KA3
CONDITION CONTEXT: concentration: 1 μM, replicates: in singlicate; n = 1
READOUT NAME: %Inh (%)

1) FC(F)(F)c1ccc(/C=C/c2cncnc2Nc2ccc3[nH]c(Cc4ccccc4)nc3c2)cc1 = 48
2) COc1cccc(-c2ccc3c(NC(=O)C4CC4)n[nH]c3n2)c1 = 22
3) CC(C)(C)c1ccc2nccc(Nc3cccc(O)c3)c2c1 = 49
4) c1ccc(-c2n[nH]cc2Nc2ccnc3ccccc23)nc1 = 24
5) C[C@@H]1CC[C@@H](C(=O)Nc2ccccc2)CN1c1cc(-c2ccc3c(N)n[nH]c3c2)nc(N)n1 = 19
6) Cc1ccc(C(=O)Nc2ccc(Nc3ccnc4cc(-c5nccs5)ccc34)cc2O)cc1.Cl = 30
7) Cc1occc1-c1ncc(OC[C@@H](N)Cc2c[nH]c3ccccc23)cc1-c1ccc2[nH]nc(C)c2c1.O=C(O)C(F)(F)F = 0
8) COc1cc(Nc2nccc(N3CCC(NC(=O)c4cc5ccccc5s4)C3)n2)cc(OC)c1OC (centres unmarked) = 18
